- Tested on: doxorubicin-resistant K562 (K562/R) cell line
- method-summary: MTT cytotoxicity assay, doxorubicin-resistant K562
- Type: cell-based, human
- stated-conditions: doxorubicin-resistant K562/R; Example 1 MTT assay; Table 4 columns marked ^a; read-out: Cytotoxicity IC50 against K562/R
pIC50: −log10 of the molar value.
metric: pIC50

compound: CC(C)=CCCC1(C)C=Cc2c(O)c3c(c(CC=C(C)C)c2O1)OC12C(=CC4CC1C(C)(C)OC2(CC=C(C)C(=O)O)C4=O)C3=O (single isomer, unassigned; epimer 2) [Epimer 2, epigambogic acid]
assay-value: 5.95

###

- Test system: doxorubicin-resistant K562 (K562/R) cell line
- method-summary: MTT cytotoxicity assay, doxorubicin-resistant K562
- Format: cell-based, human
- stated-conditions: Homo sapiens, K-562R; doxorubicin-resistant K562/R; Example 1 MTT assay; Table 4 columns marked ^a; read-out: Cytotoxicity IC50 against K562/R
metric: IC50 (µM)

compound: COc1cccc2c1C(=O)c1c(O)c3c(c(O)c1C2=O)C[C@@](O)(C(=O)CO)C[C@@H]3O[C@H]1C[C@H](N)[C@H](O)[C@H](C)O1 [Doxorubicin, doxorubicin, reference compound]
metric: IC50
assay-value: 10.8
